- test summary: ATG_VDRE_CIS: Attagene CIS-FACTORIAL HepG2 Assay for human Vitamin D Receptor Element (VDRE) (AID 2282968)
- assay context: HepG2 VDRE cis-reporter transcription, actives raise or lower the signal
The source made the active and inactive calls. How the source made its calls: active means hit-call score of the fitted dose curve at least 0.9, where 1 is the maximum; inactive means score below 0.9.
Outcomes: Y = active, N = inactive

# molecule, class
records = [
    ("O=C(O)C(F)(F)C(F)(F)C(F)(F)OC(F)(F)F", "N"),
    ("Brc1ccccn1", "N"),
    ("CCN(CC)c1ccc(C=O)cc1", "Y"),
    ("CC1=CC2C3C=CC(C3)C2C1C (stereo not given)", "Y"),
    ("C[Si](Cl)(Cl)CCC(F)(F)C(F)(F)C(F)(F)C(F)(F)C(F)(F)C(F)(F)F", "N"),
    ("COCCOCCC[Si](C)(O[Si](C)(C)C)O[Si](C)(C)C", "Y"),
    ("O=C=Nc1cccc2c(N=C=O)cccc12", "N"),
    ("O=C(F)C1(F)C(F)(F)C(F)(F)C(F)(F)C(F)(F)C1(F)F", "N"),
    ("O=C1C=CC(=O)N1c1ccccc1", "N"),
    ("CC(C)CCCC(C)CCO (stereo not given)", "N"),
    ("CCCCCCCCCc1ccc(OCCO)cc1", "N"),
    ("Cc1ccc(O)c(-n2nc3ccccc3n2)c1", "N"),
    ("C#CC(O)CCC (stereo not given)", "N"),
    ("CC(C)=CCCC(C)O (stereo not given)", "N"),
    ("C=CCOC(=O)CC(C)C", "N"),
    ("O=C=NCc1cccc(CN=C=O)c1", "N"),
    ("CCOCN(C(=O)CS(=O)(=O)O)c1c(C)cccc1CC", "N"),
    ("CCN(CC)c1ccc(C=O)c(O)c1", "Y"),
    ("NC(O)(C(F)(F)F)C(F)(F)F", "N"),
    ("OCCCc1cccnc1", "N"),
    ("CNS(=O)(=O)C(F)(F)C(F)(F)C(F)(F)C(F)(F)C(F)(F)C(F)(F)C(F)(F)C(F)(F)F", "N"),
    ("F[Si-2](F)(F)(F)(F)F", "N"),
    ("N#Cc1ccccc1O", "N"),
    ("O=C1C=CC(=O)N1c1ccc(Cc2ccc(N3C(=O)C=CC3=O)cc2)cc1", "N"),
    ("O=C(O)CCC(F)(F)C(F)(F)C(F)(F)F", "N"),
    ("Nc1cc([N+](=O)[O-])cc(Cl)c1O", "N"),
    ("O=S(=O)(O)CCC(F)(F)C(F)(F)C(F)(F)C(F)(F)F", "N"),
    ("OCC1CCCO1 (stereo not given)", "N"),
    ("COC(=O)c1ccc(C=O)cc1", "N"),
    ("CCC(C)CO (stereo not given)", "N"),
]

====

- target desc: Hypoxia-inducible factor 1-alpha (Homo sapiens)
- test summary: ATG_HIF1a_CIS: Attagene CIS-FACTORIAL HepG2 Assay for human Hypoxia Inducible Factor 1 (HIF1A) (AID 2282951)
- assay context: HepG2 Attagene cis-factorial HIF1a reporter transcription; actives raise or lower the signal
Calls of active or inactive are those of the source. How the source made its calls: active means hit-call score of the fitted dose curve at least 0.9, where 1 is the maximum; inactive means score below 0.9.
Labels: Y for active, N for inactive

# compound, class
rows = [
    ("CC1=CCC2C(=O)OC(=O)C2C1 (stereo unspecified)", "N"),
    ("Cc1ccc(S(=O)(=O)C(I)I)cc1", "N"),
    ("CO[Si](C)(CCC(F)(F)C(F)(F)C(F)(F)C(F)(F)C(F)(F)C(F)(F)F)OC", "N"),
    ("CCCCCCCCCCCCCC[P+](CCCC)(CCCC)CCCC", "N"),
    ("CC(C)OC=O", "N"),
    ("Oc1ccc(C2(c3ccc(O)c(C4CCCCC4)c3)CCCCC2)cc1C1CCCCC1", "N"),
    ("CCN=C1C=CC(=C(c2ccc(N(CC)CC)cc2)c2ccc(N(CC)CC)cc2)c2ccccc21", "Y"),
    ("CCOC(=O)C1CC(=O)C(=C(O)C2CC2)C(=O)C1 (stereo unspecified)", "N"),
    ("CCCCOC(=O)C(C)O (stereo unspecified)", "N"),
    ("O=C(Cl)c1ccc(Cl)cc1Cl", "N"),
    ("CNS(=O)(=O)C(F)(F)C(F)(F)C(F)(F)C(F)(F)C(F)(F)C(F)(F)C(F)(F)C(F)(F)F", "Y"),
    ("NC(=O)C(F)(F)C(F)(F)C(F)(F)C(F)F", "N"),
    ("O=C(O)C(F)(F)C(F)(F)C(F)(F)OC(F)(F)F", "N"),
    ("NS(=O)(=O)C(F)(F)C(F)(F)C(F)(F)C(F)(F)C(F)(F)C(F)(F)F", "N"),
    ("CCCCCCCC/C=C\\CCCCCCCC(=O)OCC(O)CO (stereo unspecified)", "Y"),
    ("O=C=Nc1cccc2c(N=C=O)cccc12", "N"),
    ("CCCC(=O)OCC(COC(=O)CCC)OC(=O)CCC", "N"),
    ("CC(C)(C)c1cc(Cc2cc(C(C)(C)C)c(O)c(C(C)(C)C)c2)cc(C(C)(C)C)c1O", "N"),
    ("COCCOCCC[Si](C)(O[Si](C)(C)C)O[Si](C)(C)C", "N"),
    ("CC1CCCCC1", "N"),
    ("NCC(F)(F)C(F)(F)C(F)(F)C(F)(F)C(F)(F)C(F)(F)F", "N"),
    ("Nc1cc([N+](=O)[O-])cc(Cl)c1O", "N"),
    ("CCc1ccc(C)nc1", "N"),
    ("O=C(c1ccccc1)c1ccc(Cl)cc1", "N"),
    ("O=S(=O)(O)CCC(F)(F)C(F)(F)C(F)(F)C(F)(F)F", "N"),
    ("c1ccc(C[P+](c2ccccc2)(c2ccccc2)c2ccccc2)cc1", "N"),
    ("CCCCCCCCCCCC(=O)Cl", "N"),
    ("CSc1ccc(O)cc1C", "N"),
    ("CCC(Cc1c(I)cc(I)c(N)c1I)C(=O)O (stereo unspecified)", "N"),
    ("O=C(O)C(F)(F)OC(F)(F)C(F)(F)OC(F)(F)C(F)(F)OC(F)(F)F", "N"),
    ("CCCCCCCCCc1ccc(OCCO)cc1", "Y"),
    ("COCCC(=O)OC", "N"),
    ("CCCCCC/C=C/CCCCCCCC(=O)O", "N"),
    ("NC(O)(C(F)(F)F)C(F)(F)F", "N"),
    ("O=C1c2c(O)ccc(Nc3ccc(CCO)cc3)c2C(=O)c2c([N+](=O)[O-])ccc(O)c21", "N"),
    ("O=C(O)CCC(F)(F)C(F)(F)C(F)(F)F", "N"),
    ("FC(F)(F)C(F)(F)C(F)(F)C(F)(F)C(F)(F)C(F)(F)C(F)(F)CCI", "N"),
    ("CC(C)(C)c1cc(CCC(=O)OCC(COC(=O)CCc2cc(C(C)(C)C)c(O)c(C(C)(C)C)c2)(COC(=O)CCc2cc(C(C)(C)C)c(O)c(C(C)(C)C)c2)COC(=O)CCc2cc(C(C)(C)C)c(O)c(C(C)(C)C)c2)cc(C(C)(C)C)c1O", "N"),
    ("O=C(c1ccccc1)c1ccc(O)cc1O", "N"),
    ("C=C(C)C(=O)OCC(F)(F)C(F)(F)C(F)(F)C(F)F", "N"),
    ("C=C(C)CCCC", "N"),
    ("Cc1cnccn1", "N"),
    ("Cc1ccc2c(c1)OCC(=O)CO2", "N"),
    ("CC(C)C(=O)OCc1ccccc1", "N"),
    ("COC(F)(C(F)F)C(F)(F)F (stereo unspecified)", "N"),
    ("CCc1cc(Cc2cc(CC)c(N)c(CC)c2)cc(CC)c1N", "N"),
    ("C=CC(=O)OCC(F)(F)C(F)(F)C(F)(F)COC(=O)C=C", "N"),
    ("Cc1cccc(C)n1", "N"),
    ("Cc1ccc([N+](=O)[O-])c(C)c1", "N"),
    ("CN(C(=O)C(F)(F)C(F)(F)C(F)(F)F)[Si](C)(C)C", "N"),
    ("CCCCOC(=O)[C@H](C)O", "N"),
]
